Assay: Phase 1 single dose study, plasma pharmacokinetics in healthy adult males
Assay type: in vivo, human
Details: male, human, plasma, po, 150 mg, 150 mg single oral, fasted, suspension (C4); read-out: t1/2 (converted)
Experimental: The dose groups included Cohort 1 (15 mg or placebo, fasted, oral suspension), Cohort 2 (50 mg or placebo, fasted, suspension), Cohort 3 (100 mg or placebo, fasted, oral suspension), Cohort 4 (150 mg or placebo, fasted, oral suspension), Cohort 6 (50 mg or placebo, fed, oral suspension), and Cohort 7 (50 mg or placebo, fasted, oral capsule). […] An additional 8 subjects received placebo. […]
PROPERTY: half-life (h)
Could you give me the number in h? Just the number is fine.

Entry under review: [2H]c1c([2H])c([2H])c2c(C(=O)c3cc(Br)c(O)c(Br)c3)c(C(C)O)oc2c1[2H] (racemic) [Compound 1] . Reported half-life?
12

---

Assay: Phase 1 multiple ascending dose study, plasma pharmacokinetics in healthy adult males
Type: in vivo
Conditions: male, human, oral, 25 mg, 25 mg once daily, fasted, Day 10, read-out: Tmax (median)
PROPERTY: Tmax (h)
Could you give me the number in h? Just the number is fine.

Entry under review: [2H]c1c([2H])c([2H])c2c(C(=O)c3cc(Br)c(O)c(Br)c3)c(C(C)O)oc2c1[2H] (racemic) . Reported Tmax?
2.25
